- assay.system: Indoleamine 2,3-dioxygenase 1 (Homo sapiens, UniProt P14902)
- Sequence (P14902 whole entry): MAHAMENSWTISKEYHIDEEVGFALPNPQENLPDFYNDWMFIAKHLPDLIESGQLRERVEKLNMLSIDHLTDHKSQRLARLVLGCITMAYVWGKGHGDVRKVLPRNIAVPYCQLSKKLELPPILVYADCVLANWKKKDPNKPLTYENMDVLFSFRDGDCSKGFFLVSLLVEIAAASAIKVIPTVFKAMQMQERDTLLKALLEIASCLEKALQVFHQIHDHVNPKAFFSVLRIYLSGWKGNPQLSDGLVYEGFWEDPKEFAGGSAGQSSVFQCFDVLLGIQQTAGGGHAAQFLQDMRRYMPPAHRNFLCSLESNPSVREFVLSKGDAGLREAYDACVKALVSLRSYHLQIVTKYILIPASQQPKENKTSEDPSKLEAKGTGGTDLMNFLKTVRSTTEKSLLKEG
- assay.explanation: Inhibition of IDO1 in human HeLa cells assessed as reduction in kynurenine production
- Assay type: cell-based
measured.attribute: pIC50
Expect pIC50 as a plain number equal to -log10 of the molar concentration.

-- ask I have this compound here, CS(=O)(=NC#N)NCCNc1nonc1/C(=N/O)Nc1ccc(F)c(Br)c1 (stereo unspecified) , and I need its recorded pIC50.
-- reply 8.74

---

- assay.system: Indoleamine 2,3-dioxygenase 1 (Mus musculus, UniProt P28776)
- Sequence (P28776 whole entry): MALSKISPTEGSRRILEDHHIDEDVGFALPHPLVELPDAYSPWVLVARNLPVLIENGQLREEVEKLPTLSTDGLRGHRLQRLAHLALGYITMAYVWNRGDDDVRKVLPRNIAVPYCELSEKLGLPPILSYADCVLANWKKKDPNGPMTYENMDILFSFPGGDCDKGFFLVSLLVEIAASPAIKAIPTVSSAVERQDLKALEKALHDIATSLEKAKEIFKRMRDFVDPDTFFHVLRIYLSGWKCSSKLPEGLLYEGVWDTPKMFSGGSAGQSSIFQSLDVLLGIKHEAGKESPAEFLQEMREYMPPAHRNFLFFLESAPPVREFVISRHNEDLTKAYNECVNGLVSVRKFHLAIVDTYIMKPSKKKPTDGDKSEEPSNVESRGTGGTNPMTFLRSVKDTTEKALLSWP
- assay.explanation: Inhibition of IDO1 in mouse P815 Clone 12 cells assessed as reduction in kynurenine production incubated for 16 to 18 hrs
measured.attribute: IC50 (nM)
Write it as a number; the unit nM goes unstated.

-- ask I have this molecule here, O=C1CC(c2c[nH]c3ccc(F)cc23)C(=O)N1 (stereo unspecified) , and I need its recorded IC50.
-- reply 94

---

- assay.system: UniProt:P14902
- assay.explanation: Inhibition of IDO1 in human HeLa assessed as reduction in kynurenine production
- Format: cell-based
measured.attribute: pIC50
Expect pIC50 as a plain number equal to -log10 of the molar concentration.

-- ask I have this compound here, NS(=O)(=O)NC1(CCNc2nonc2/C(=N/O)Nc2ccc(F)c(Br)c2)CC1 , and I need its recorded pIC50.
-- reply 8.52

---

- assay.system: Indoleamine 2,3-dioxygenase 1 (Homo sapiens)
- assay.explanation: Inhibition of IDO1 (unknown origin) assessed as reduction in kynurenine production by spectraphotometric assay
pIC50: −log10 of the molar value.
measured.attribute: pIC50

-- ask I have this compound here, O/N=C(/CCC1CCCCC1)Nc1cccc(Cl)c1 , and I need its recorded pIC50.
-- reply > 6.00

---

- assay.system: Indoleamine 2,3-dioxygenase 1 (Homo sapiens, UniProt P14902)
- assay.explanation: Inhibition of human IDO1 assessed as reduction in kynurenine production
measured.attribute: pIC50
Expect pIC50 as a plain number equal to -log10 of the molar concentration.

-- ask Query for Indoleamine 2,3-dioxygenase 1 (Homo sapiens, UniProt P14902): what pIC50 does the record show for NS(=O)(=O)NC1(CCNc2nonc2/C(=N/O)Nc2ccc(F)c(Br)c2)CC1 ?
-- reply 7.74

---

- assay.system: Tryptophan 2,3-dioxygenase (Homo sapiens)
- assay.explanation: Inhibition of TDO (unknown origin)
measured.attribute: pIC50
Expect pIC50 as a plain number equal to -log10 of the molar concentration.

-- ask Query for Tryptophan 2,3-dioxygenase (Homo sapiens): what pIC50 does the record show for O[C@H](C[C@H]1c2c(F)cccc2-c2cncn21)[C@H]1CC[C@H](O)CC1 [NAVOXIMOD] ?
-- reply 6.85

---

- assay.system: Tryptophan 2,3-dioxygenase (Homo sapiens, UniProt P48775)
- Sequence (P48775 whole entry): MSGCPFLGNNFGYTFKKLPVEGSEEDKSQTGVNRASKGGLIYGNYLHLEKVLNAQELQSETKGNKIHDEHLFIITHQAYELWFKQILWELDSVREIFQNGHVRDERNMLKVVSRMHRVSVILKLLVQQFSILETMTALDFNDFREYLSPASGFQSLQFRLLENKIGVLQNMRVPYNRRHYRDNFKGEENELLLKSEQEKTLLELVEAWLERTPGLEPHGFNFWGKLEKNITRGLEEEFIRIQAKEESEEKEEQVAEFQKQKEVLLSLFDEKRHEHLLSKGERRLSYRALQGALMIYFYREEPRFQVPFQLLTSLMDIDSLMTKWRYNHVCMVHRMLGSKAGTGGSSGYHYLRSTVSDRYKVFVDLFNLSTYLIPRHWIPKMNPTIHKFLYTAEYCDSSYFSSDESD
- assay.explanation: Inhibition of human TDO expressed in T-REx-293 cells
- Format: cell-based
measured.attribute: pIC50
Expect pIC50 as a plain number equal to -log10 of the molar concentration.

-- ask I have this compound here, O[C@H](C[C@H]1c2c(F)cccc2-c2cncn21)[C@H]1CC[C@H](O)CC1 , and I need its recorded pIC50.
-- reply 5.82
